Tested on: COLO 205 colon
methodDescription: NCI tumour cell line growth inhibition, 48 h
For each entry below, report its TGI value.

// solved cases for TGI follow
CCN(CC)[C@@H]1c2cc3c(cc2C(c2cc(OC)c(O)c(OC)c2)C2C(=O)CO[C@@H]21)OCO3 (stereo not given in full)    > 100 µM
Cc1cc(=O)[nH]c2c1C(=O)C(=O)C=C2    > 100 µM
CCn1cc(C(=O)O)c(=O)c2cc(F)c(N3CCNCC3)nc21    > 100 µM
CSc1cc(Cl)c(C)cc1S(=O)(=O)NC(=O)NNc1cnc2ccccc2n1    > 100 µM

We next turn to a different compound, shown below.
Sample `O=C1OCC(CN2CCC(n3c(=O)[nH]c4ccccc43)CC2)=C1c1ccccc1` — what was its TGI? 28.1 µM
